For each of the substances below, state its Migration rate (%) (mean ± SD, P).
Tested on: human lung squamous carcinoma cells (NCI-H226)
Test: scratch assay, migration of NCI-H226 cells
Assay type: cell-based
Conditions: NCI-H226, 10 μM, 48 hours; control group 65.31 ± 3.19
Ends that are not written are not given here. PEG = not defined here

Item under review: N47: SEQ ID NO: 1 with N18R, deletion of positions 1-2, one amino acid added and PEG at the carboxyl terminal (VRFLAKENVTQDAEDRC-{PEG}; reading uncertain) . Reported Migration rate (%) (mean ± SD, P)?
53.86 ± 3.61,* %

Item under review: N27: SEQ ID NO: 1 with addition of one amino acid at the carboxyl terminal and PEG modification at the carboxyl terminal (YRVRFLAKENVTQDAEDNC-{PEG}; reading uncertain) . Reported Migration rate (%) (mean ± SD, P)?
31.19 ± 5.96,*** %

Recorded Migration rate (%) (mean ± SD, P) of N49: SEQ ID NO: 1 with A7R, deletion of positions 1-2 and position 18, PEG modification at the carboxyl terminal (VRFLRKENVTQDAED-{PEG}; reading uncertain) , please.
38.90 ± 5.49,** %

Given N29: SEQ ID NO: 1 with deletion of positions 1-5 and 15-18 and PEG modification at the amino terminal ({PEG}-LAKENVTQD; reading uncertain) , state its recorded Migration rate (%) (mean ± SD, P).
40.30 ± 4.81,** %

Which Migration rate (%) (mean ± SD, P) value belongs to N54: SEQ ID NO: 1 with A7R, addition of two amino acids and PEG modification at the carboxyl terminal (YRVRFLRKENVTQDAEDNTC-{PEG}; reading uncertain) ?
24.66 ± 5.13,*** %

Need Migration rate (%) (mean ± SD, P), item N10: SEQ ID NO: 1 with deletion of positions 15-18 and 1-3 and PEG modification at the carboxyl terminal (RFLAKENVTQD-{PEG}; reading uncertain)
17.75 ± 5.87,*** %

Look up Migration rate (%) (mean ± SD, P): N43: SEQ ID NO: 1 with addition of one amino acid at the amino terminal, deletion of position 18, PEG at the carboxyl terminal (RYRVRFLAKENVTQDAED-{PEG}; reading uncertain)
16.38 ± 7.71,*** %

Need Migration rate (%) (mean ± SD, P), item N22: SEQ ID NO: 1 with substitution A7R, deletion of three amino acids at the amino terminal and of positions 15-18 (RFLRKENVTQD)
18.69 ± 5.25,*** %

Consider the substance shown here: N15: SEQ ID NO: 1 with substitution N18R and addition of one amino acid to the carboxyl terminal (YRVRFLAKENVTQDAEDRC) What is its recorded Migration rate (%) (mean ± SD, P)?
35.05 ± 3.95,** %

Request the reported Migration rate (%) (mean ± SD, P) associated with N34: SEQ ID NO: 1 with A15R, addition of one amino acid at the carboxyl terminal, PEG modification at the amino terminal ({PEG}-YRVRFLAKENVTQDREDNC; reading uncertain)
36.53 ± 4.35,** %

Given the substance N21: SEQ ID NO: 1 with deletion of positions 1-5 and 15-18 and addition of one amino acid at the amino terminal (SLAKENVTQD) , what is its reported Migration rate (%) (mean ± SD, P)?
13.58 ± 6.67,*** %

Name the recorded Migration rate (%) (mean ± SD, P) for N33: SEQ ID NO: 1 with deletion of positions 1-5, addition of one amino acid and PEG modification at the carboxyl terminal (LAKENVTQDAEDNC-{PEG}; reading uncertain) .
40.73 ± 4.87,** %

Request the reported Migration rate (%) (mean ± SD, P) associated with N39: SEQ ID NO: 1 with addition of two amino acids and PEG modification at the carboxyl terminal (YRVRFLAKENVTQDAEDNTC-{PEG}; reading uncertain)
21.82 ± 5.54,*** %

// returns reported Migration rate (%) (mean ± SD, P) for input N17: SEQ ID NO: 1 with addition of two amino acids to the carboxyl terminal (YRVRFLAKENVTQDAEDNCT)
43.38 ± 4.83,** %

Which value of Migration rate (%) (mean ± SD, P) has been reported for N9: SEQ ID NO: 1 with deletion of positions 15-18 and PEG modification at the amino terminal ({PEG}-YRVRFLAKENVTQD; reading uncertain) in the records?
35.47 ± 5.20,** %

State the recorded Migration rate (%) (mean ± SD, P) for this entry: N38: SEQ ID NO: 1 with one amino acid added at each terminal and PEG modification at the carboxyl terminal (FYRVRFLAKENVTQDAEDNC-{PEG}; reading uncertain)
47.66 ± 6.39,* %

GET /values?readout=Migration rate (%) (mean ± SD, P)&item= N26: SEQ ID NO: 1 with substitution A15R, addition of one amino acid at the amino terminal and one at the carboxyl terminal (FYRVRFLAKENVTQDREDNC)
18.41 ± 7.90,*** %

# lookup: Migration rate (%) (mean ± SD, P) of N42: SEQ ID NO: 1 with deletion of positions 1-5 and 15-18, PEG at the amino terminal, one amino acid added at the carboxyl terminal ({PEG}-LAKENVTQDR; reading uncertain)
17.46 ± 6.33,*** %
